Tested on: HEK293 cells
assay.overview: Cell transfection with SEAP plasmid, HEK293
Format: cell-based, human
reported.conditions: Figure 5A; in complex with pVitro14 LGFP SEAP plasmid, 48 hours, SEAP reporter gene expression
endpoint: ability to transfect HEK293 cells

| molecule | endpoint.value |
| --- | --- |
| CCCCCCCCCCCCCCCC(=O)OCC(CSC[C@H](N)C(=O)N[C@@H](CCC(=O)NCCCNCCCCNCCCN)C(=O)Nc1ccc(Cn2c(O)nc3c(N)nc(NCCCC)nc32)cc1)OC(=O)CCCCCCCCCCCCCCC (some centres unmarked) | transfect HEK293 cells |
| CCCCCCCCCCCCCCCC(=O)OCC(CSC[C@H](N)C(=O)N[C@@H](COC(=O)c1ccc(Cn2c(O)nc3c(N)nc(NCCCC)nc32)cc1)C(=O)NCCCNCCCCNCCCN)OC(=O)CCCCCCCCCCCCCCC (some centres unmarked) | transfect HEK293 cells |
| CCCCCCCCCCCCCCCC(=O)OCC(CSC[C@H](N)C(=O)NCCCNCCCCNCCCNC(=O)CNC(=O)c1ccc(Cn2c(O)nc3c(N)nc(NCCCC)nc32)cc1)OC(=O)CCCCCCCCCCCCCCC (some centres unmarked) | transfect HEK293 cells |
